Please provide measured melting point for the entries that follow.

>  <compound>
CCCCc1c(NCCCO)cnn(C(C)(C)C)c1=O

>  <assay-value>
106 to 108 °C

$$$$
>  <compound>
O=C(O)c1c(Cl)cc(N2C(=O)N3CCCC3(Cc3ccc(Br)cc3)C2=O)cc1Cl (stereo not given)

>  <assay-value>
152 °C

$$$$
>  <compound>
COc1cc2c(cc1OC)CN(CCCCc1ccc(NC(=O)c3ccc4ccccc4c3)cc1)CC2

>  <assay-value>
165 to 167 °C

$$$$

For each listed entry, give its melting point.
1. COC(=O)C=Cc1ccc(OC)c(OCc2nc(-c3ccccc3)oc2C)c1
2. COc1cc(OC)c2c(=O)[nH]c(-c3ccc(CN4C(=O)CNC4=O)cc3)nc2c1
3. O=C(CCl)OCCCCOC(=O)CCl
4. O=C1C=C(O)C(Cc2ccc(Br)cc2)S1 (stereo not given)
5. COc1ccc(-c2cc(F)c(F)cc2-c2ccc(S(C)(=O)=O)cc2)cc1C

Response:
135 to 136 °C
317 to 318 °C
74 to 76.5 °C
156 to 157 °C
160 to 162 °C

* * *

Please provide measured melting point for the entries that follow.

>  <compound>
Cn1nnc2sc(N)cc2c1=O

>  <melting point>
190 to 194 °C

$$$$

For each listed entry, give its melting point.
1. CN(Cc1ccc(Cl)nc1)C(N)=N[N+](=O)[O-]
2. COCN1C(C)=C(C(=O)OC)[C@H](c2cccc([N+](=O)[O-])c2)C(C(=O)OCOC(=O)C(C)(C)C)=C1C
3. Cc1ccccc1CC(=O)N1CCN(c2nccs2)CC1

Response:
1: 158 °C; 2: 113 to 114 °C; 3: 110 to 111 °C

* * *

Please provide measured melting point for the entries that follow.

Look over these answered cases.
>  <molecule>
Cc1nnc(-c2ccc3occ(-c4ccc(C(F)(F)F)cc4)c3c2)o1

>  <melting point>
190 to 191 °C

$$$$
>  <molecule>
Cc1csc(NC(=O)C(C(=O)OC(C)C)=C2SCCS2)n1

>  <melting point>
161 to 162 °C

$$$$
>  <molecule>
Cc1oc(-c2ccccc2)nc1COc1ccc(CC2SC(=N)NC2=O)cc1 (stereo not given)

>  <melting point>
257 to 258 °C

$$$$
>  <molecule>
CCCCCCCCCCCCCCCCSCC(CN)Oc1ccon1 (stereo not given)

>  <melting point>
73 to 74 °C

$$$$

Next molecule, melting point to be filled in.
Query: # lookup: melting point of C=CC(=O)OC(C)OC(=O)c1c2ccccc2cc2ccccc12 (stereo not given)
Response: 66 to 68 °C

* * *

property-name: melting point

Look over these answered cases.
>  <molecule>
COc1ccc(-c2nc(C(F)(F)F)[nH]c2-c2ccc(S(C)(=O)=O)cc2)cc1F

>  <assay-value>
228 to 234 °C

$$$$
>  <molecule>
CCN(CC)C(=O)Oc1cc(CN/C=C2\C(=O)NC(=O)c3ccc(I)cc32)ccc1OC

>  <assay-value>
128 to 130 °C

$$$$
>  <molecule>
COc1ccc(S(=O)(=O)Nc2ccccc2NC(=O)c2ccncc2C)cc1

>  <assay-value>
194 to 195 °C

$$$$
>  <molecule>
CCCCCCOC(=O)c1cccc(-c2cn(C)cc(-n3cccn3)c2=O)c1

>  <assay-value>
96 to 97 °C

$$$$
>  <molecule>
C#CCn1cncc1CO

>  <assay-value>
91 to 92.5 °C

$$$$
>  <molecule>
O=C(Cl)N1CCC(Oc2cc(Cl)cc(Cl)c2)C1 (stereo not given)

>  <assay-value>
105 to 107 °C

$$$$
>  <molecule>
CC1Cc2ccc(Cl)cc2C(c2ccc([N+](=O)[O-])cc2)=NN1C(=O)C(F)(F)F (stereo not given)

>  <assay-value>
150 to 152 °C

$$$$
>  <molecule>
CCc1c(-c2ccc(OC)cc2)c2c(CO)cc3cccc1n32

>  <assay-value>
97 to 100 °C

$$$$

For each listed entry, give its melting point.
1. CC(=O)Oc1nc2c(N)ncnc2n1Cc1ccccc1
2. Fc1ccc(-c2ncn(CCCCN3CCOCC3)c2-c2ccncc2)cc1

Response:
189 to 191 °C
103 to 104 °C

* * *

property-name: melting point

>  <molecule>
O=C1Nc2ccc(I)cc2C1=NNC(=O)c1ccc(I)cc1

>  <assay-value>
326 °C

$$$$

For each listed entry, give its melting point.
1. CCOC(=O)C(=O)Cc1cc(=O)n(Cc2ccc(Cl)cc2)c2ccccc12
2. CSc1cnc(NC2=NCC3(CN4CCC3CC4)O2)cn1 (stereo not given)
3. O=C(C=Cc1ccc(O)c([N+](=O)[O-])c1)N(c1ccccc1)c1ccccc1
4. O=C1C(c2ccccc2)=C(c2ccccc2)C(=O)N1Cc1ccccc1F
5. CCc1ccc2nc(C)[nH]c(=O)c2c1
6. O=C(O)Cc1ccc(CCN2CCNCC2)cc1

Response:
180 to 182 °C
155 to 160 °C
197 to 198 °C
113 to 114 °C
165 to 185 °C
238 to 239 °C

* * *

Please provide measured melting point for the entries that follow.

>  <compound>
CNc1ccc(Cl)nc1

>  <property-name>
melting point

>  <assay-value>
70 °C

$$$$
>  <compound>
CCCCCC(CCN1C(=O)NC2CC(=O)CC21)OC(C)=O (stereo unspecified)

>  <property-name>
melting point

>  <assay-value>
85 to 86 °C

$$$$
>  <compound>
Oc1ccc2cc(I)ccc2c1

>  <property-name>
melting point

>  <assay-value>
136 to 138 °C

$$$$
>  <compound>
O=S1(=O)NCCc2ccc(Oc3ccccc3)cc21

>  <property-name>
melting point

>  <assay-value>
129 to 132 °C

$$$$
>  <compound>
O=C1Cc2ccc(-c3ccccc3)cc2N1

>  <property-name>
melting point

>  <assay-value>
173 to 175 °C

$$$$
>  <compound>
OC(c1ccccc1)(c1ccccc1-c1ccccc1)C1CCNCC1 (stereo unspecified)

>  <property-name>
melting point

>  <assay-value>
185 to 186 °C

$$$$
>  <compound>
CC(C)(OC(=O)c1ccccc1)c1nccc2ccccc12

>  <property-name>
melting point

>  <assay-value>
116 to 119 °C

$$$$
>  <compound>
O=C(NCCc1ccnc(-c2nc(=O)c3ccccc3s2)c1)c1ccccc1

>  <property-name>
melting point

>  <assay-value>
217 to 219 °C

$$$$

For each listed entry, give its melting point.
1. O=[N+]([O-])c1ccccc1NCCNc1ccccc1
2. Nc1cc(SC2=CCCCC2)ccc1[N+](=O)[O-]
3. Cc1noc(=O)c2ccc(NC(=O)C(=O)CC3(c4ccccc4)CC3)cc12

Response:
1. 64 to 66 °C
2. 100 to 102 °C
3. 155 to 156 °C

* * *

Please provide measured melting point for the entries that follow.

Look over these answered cases.
>  <compound>
CC(C)C(C)(C#N)N1C(=O)c2ccc3ccn(C)c3c2C1=O (centres undefined)

>  <assay-value>
134 to 138 °C

$$$$
>  <compound>
O=C(O)c1cccc2c(=O)cc(-c3ccc(OCc4ccccc4)cc3)oc12

>  <assay-value>
145 to 147 °C

$$$$
>  <compound>
Cc1nc(-c2ccccc2)sc1CNC(=O)c1ccnc(N2CCN(Cc3ccc(F)cc3)C2=O)c1

>  <assay-value>
182 to 184 °C

$$$$

For each listed entry, give its melting point.
1. COc1ccc(CC2CC(=O)CCN2C(=O)c2cc(C(F)(F)F)cc(C(F)(F)F)c2)cc1OC (centres undefined)
2. Cc1cc(C)c2c(c1)C=C(/C=C/C=C/C=C/C(=O)O)C(C)(C)O2
3. CCCCN(CCCC)c1ccc(C=CC=Cc2ccc(C=CC3=C(C#N)C(=C(C#N)C#N)OC3(c3ccccc3)C(F)(F)F)s2)c(OC)c1 (centres undefined)
4. CCCCCc1cc2c(nc(O)n2CCCNS(C)(=O)=O)c(N)n1
5. Nc1nc(NCCOc2ccc(O)cc2)nc2nc(-c3ccco3)nn12
6. CCC1CCCC(C)C1=NC(C)COC (centres undefined)

Response:
1: 133 °C; 2: 200 to 202 °C; 3: 125 to 140 °C; 4: 174 to 176 °C; 5: 266 to 268 °C; 6: 109 to 113 °C

* * *

Please provide measured melting point for the entries that follow.

Look over these answered cases.
>  <compound>
Nc1nc2c(c(Nc3cccc(F)c3)n1)-c1ccccc1C2

>  <melting point>
199 to 200 °C

$$$$
>  <compound>
CCC(CC)(NCCCn1cnc(CO)c1)c1ccccc1

>  <melting point>
82 to 84 °C

$$$$
>  <compound>
O=C(O)Cc1cccc(Cn2cc(C3c4ccccc4C=Cc4ccccc43)c(=S)[nH]c2=O)c1

>  <melting point>
135 to 137 °C

$$$$
>  <compound>
CCC1(CC(=O)O)OCCc2c1[nH]c1c(OCC(F)(F)F)cccc21 (stereo unspecified)

>  <melting point>
126 to 129 °C

$$$$
>  <compound>
CCCC12CCC(CC(=O)O)(CC1)CC2

>  <melting point>
85 °C

$$$$
>  <compound>
O=S(=O)(c1ccc(Oc2ccccc2)cc1)N1CC1

>  <melting point>
136 to 138 °C

$$$$

For each listed entry, give its melting point.
1. CCOC(=O)[C@@H]1CN(CC2=Cc3ccc(OC)cc32)CC[C@H]1O (relative stereo)
2. O=C(O)C(Cc1ccccc1)Oc1ccc(-c2ccc(-c3c(Cc4ccccc4)oc4cccnc34)cc2)cc1 (stereo unspecified)
3. COC(=O)C(=C/c1cc(OC)c(OC)c(OC)c1)/C(C(N)=O)=C(/C)c1ccccc1
4. CCOC(=O)/C=C/c1cnn(Cc2ccccc2)c1-c1ccccc1
5. CN1CCN(c2cccc3ccc(Nc4ccc([N+](=O)[O-])cn4)cc23)CC1
6. C=CCOc1ccc2c(ccc(=O)n2CC=C(C)C)c1

Response:
1. 156 to 160 °C
2. 85 to 88 °C
3. 141 to 143 °C
4. 62 to 63 °C
5. 121 to 125 °C
6. 80 to 82 °C

For each listed entry, give its melting point.
1. O=C(Nc1ccc(NC(=O)OCCCl)c([N+](=O)[O-])n1)OCCCl
2. Cc1nn(CCOc2ccc(C=O)cc2)c(=O)c2ccccc12
3. COc1c2c(cc3ccccc13)CCC(C(=O)O)C2 (stereo unspecified)
4. CCCN(CCCc1c[nH]c2ccc(F)cc12)C1COc2c(F)ccc(C(N)=O)c2C1 (stereo unspecified)
5. CNS(=O)(=O)Cc1ccc(C)cc1

Response:
1: 118 to 119 °C; 2: 90 °C; 3: 192 °C; 4: 125 °C; 5: 49 to 52 °C

For each listed entry, give its melting point.
1. CCOC(=O)COc1cccc2c1oc1sc(Nc3ccccc3)nc12
2. Nc1ccc(S(=O)(=O)c2cc(-c3ccsc3)nc(N3CCCC3)c2)cc1
3. CCc1cnc(N2CCC(c3ccc(COc4ccc(C#N)c(F)c4)nc3)CC2)nc1

Response:
["196 to 198 °C", "260 °C", "129 to 131 °C"]

Query: # lookup: melting point of O=c1[nH]cnc2cc(O)c(O)cc12
Response: > 250 °C
